experiment: soluble on expression in E. coli; label from the status in PepcDB or PDB records
measure name: soluble on expression in E. coli

| sequence data | measure name | recorded measurement |
| --- | --- | --- |
| MGSDKIHHHHHHMEELFTYKEFIKMMQNYGIRHKKRKLRRNENVMTNSSSPNSVILLIKGYICSYTCESPETLLSVFEPGVFLSYSILEDLPPLVTNIALSEECIVYEYEKEDIEYALSLFPENFGFQYFFLKKIGRHLYYKALLNAKDHQEKLYYTIKYLGKLIGEKDGKGNIVLPPEITIKILIEYSTLSKAAFYRQRIRLIEEEILKPHKKTFLVPKKVVKHYEKQLTSI | soluble on expression in E. coli | not soluble |
| MSRNNEELQGISLLGNQKTQYPTGYAPEILEAFDNKHPDNDYFVKFVCPEFTSLCPMTGQPDFATIYIRYIPHIKMVESKSLKLYLFSFRNHGDFHEDCVNIIMKDLIALMDPKYIEVFGEFTPRGGIAIHPFANYGKAGTEFETLARKRLFEHDAQ | soluble on expression in E. coli | not soluble |

* * *

assay: soluble on expression in E. coli; label from the status in PepcDB or PDB records
measure name: soluble on expression in E. coli

| sequence data | recorded measurement |
| --- | --- |
| MCAVLGDNSVSYNTMKFWFEKIKKKNYDLDDKPRSGRPRLDIDEDISRALEDDPRSMSREISATLKRPHTTIINHLHESGRVPKFGQLVPHNLSDSQKNLRCDLSLSLLTRKRTTDWVKDITTGDEKWVLYVNHTRKKQWVPVEEHAEPDLKGELHEKKVLLSIWWDSMGVIFRELLPDGATINADLYCIQLEKVVHAHQLHRPRGSKLLLLHDNARPHTALKTRQKLQTLGIEVLPHPPYSPDLAPTDYHLFRSLQNHLAGQKFHDRKAVETWLDDFFASKSQEFYAEGIAQLPLRWQEVIDTNGEYITH | not soluble |
| MGSDKIHHHHHHMSRAIPAMPLAPASAALDLSKVKTLVCEPSLPIRQGIRLALNNVGIRDITEATTFLAAHQACKEGDHDFLLLNQEIETNDTAFMVRELRSGALGRDPFILTVMLLSSREEPKVRSAIDCGPDDLLLIPFAPDQLMNRLKAQIERRKPFVVTHDYIGPDRRAAPRPGATSATQFQVPNPVRARGTNVPRDRYDRMKQESIVTISVERIKRLAATMDWECNALTVSAREGRMTPESTYRSLLKLEQVTAELSLRVTKQLGHSTETIDSLTQYLPPVEDGSEQCKLFRC | not soluble |

* * *

assay: soluble on expression in E. coli; label from the status in PepcDB or PDB records
measure name: soluble on expression in E. coli

Worked examples, 6 sequences total:
| sequence data | soluble on expression in E. coli |
| --- | --- |
| MDTTTTSSLKSAEKKDTDATPRAHSPEIDVEVIKSDCSTPEKQNGAVGNEQQMNNSTSTRRTDSNKNLSPPPQRLRTSSSTSDGTENLISSLSSWDWVTIDGLKLPAVTRNKERYVAVHMVQLKLLSKFPSDIPRDITRKFTMGSHKMTVTEAWTFNTINAVIRKFDLGCQLFTANDELVKLNDVQMFYWNVKLFNLKRVNGQYETAISSAENNVQLLATAMQLKKQVDSDIQVIFK | not soluble |
| MGSDKIHHHHHHMNIRLYSDLHIEFEDFHAPADGADVVVLAGDVDVGVRGIDWIVRQEFSCPVIYVMGNHEYYNHRYPSLLGKVKQHAAGKNIHILENESVEIDGVRFHGATLWADFKLFGDPRVAGYECQQVMRDYKKIRKEPSYSKLRSIDVASIHNQSLSWLAESLASSKSSVNVVVTHHAPSMLSVPAYYQDNLVTAAYASDLSAFIDEHKPDYWLHGHLHTSSNYYLGACQVLANPKGYKGEVNESFDPSFSLTLAKRGV | not soluble |
| MKIDILDKGFVELVDVMGNDLSAVRAARVSFDMGLKDEERDRHLIEYLMKHGHETPFEHIVFTFHVKAPIFVARQWFRHRIASYNELSGRYSKLSYEFYIPSPERLEGYKTTIPPERVTEKISEIVDKAYRTYLELIESGVPREVARIVLPLNLYTRFFWTVNARSLMNFLNLRADSHAQWEIQQYALAIARIFKEKCPWTFEAFLKYAYKGDILKEVQV | not soluble |
| MRLRKKPWARPALEACSFFVINPTEYKGKWREVFGNSNEIWLELGCGKGGFISKLASTNPDKNFIAVDIKDEVLALAMKKIENEYALIGAETKNIRLMAHEIMLIHRMLDENDQIGRIFINFCNPWPKNRHKARRLTHPNQLNQYRTFLAPNGQIWFKTDDTMLFQDSIKYFEQCNFNIVYLTEDLHASGFEGNIETEHERMFLEQGCKIKFLIAEKK | soluble |
| MATLFIADLHLQTEEPAITAGFLRFLQGEARQADALYILGDLFEAWIGDDDPNPLHQQIASAIKAVVDAGVPCYFIHGNRDFLVGQRFARQSGMILLAEEERLDLYGREVLIMHGDTLCTDDQGYLAFRAKVHTPWIQRLFLALPLFIRHRIAARMRADSKAANSSKSMEIMDVNPQAVVDAMERHHVQWLIHGHTHRPAVHELQANGQPAWRVVLGAWHSEGSMVKVTPDDVELIHFPF | not soluble |
| MSLVPQGGPVLCRDEMEEWSASEAMLFEEALEKYGKDFNDIRQDFLPWKSLASIVQFYYMWKTTDRYIQQKRLKAAEAEGHHHHHH | not soluble |

Next sequence, soluble on expression in E. coli to be filled in.
Param item = MTGRIVHFEIPFDDGDRARAFYRDAFGWAIAEIPDMDYSMVTTGPVGESGMPDEPGYINGGMMQRGEVTTPVVTVDVESIESALERIESLGGKTVTGRTPVGNMGFAAYFTDSEGNVVGLWETAR ; retrieve measured soluble on expression in E. coli.
soluble

* * *

assay: soluble on expression in E. coli; label from the status in PepcDB or PDB records
measure name: soluble on expression in E. coli

| sequence data | measure name | recorded measurement |
| --- | --- | --- |
| MASTRPDNVLVWMASRGSYVESMPGTILRIKNASKFGENLYGFKDQPGELVEVTWDAMFKLRPTLVEVDFGRNPCDELVKVIEKNYNNEQISHFFEKVKALSLHMTDITSESLLKLMDKFTLLAAFSFSETKFSTPEWATILKRLSELNLRGIDLSDNILSEVQQHIDVSLMKLSGNPGVDVNEFKKGIEFVTVKVLAVQELKFLGETDAEQLLEVLPQSFPRLETLIWDWNVVDPELNFDERTKKVLDQLLFVNKQLNLGSLAVVAYTPNPETKTAIESVARTLKGSIKDVQLHQFATKGLSDGMANFSLIVAGNNEKAMKELMDMYMVDRSTMPPMGKLLRLCEEDIVPIYPAITMDFGGFNKNRIRQLYTESPTD | soluble on expression in E. coli | not soluble |
| MAHHHHHHMKRGREEDKEAEVGGSRVGPSDRRSAATSTEHKPRRLLKGADVGLPLHESVIEETCEVEETHAVLVRFPCFDFFRHVRVCERTRDLQPATSDDAAKASASLASALSDTTFRSGAPPVTSTHDTADVAFAPEAAVFIPGTLETDAPRLLLNGGTPHEMLFEGQWTEVTGEGVSVTNRAVVHLSAKTAGIAVSPAALPLNTSPIMSDAAKSPELARAAAESFPASASQATATPALPIASLLTHTLAGVTADEERRQRAEQQKGWTYDRIDVPSAVLVMHRVR | soluble on expression in E. coli | not soluble |
| MITTPLVHVASVEKGRSYEDFQKVYNAIALKLREDDEYDNYIGYGPVLVRLAWHISGTWDKHDNTGGSYGGTYRFKKEFNDPSNAGLQNGFKFLEPIHKEFPWISSGDLFSLGGVTAVQEMQGPKIPWRCGRVDTPEDTTPDNGRLPDADKDAGYVRTFFQRLNMNDREVVALMGAHALGKTHLKNSGYEGPWGAANNVFTNEFYLNLLNEDWKLEKNDANNEQWDSKSGYMMLPTDYSLIQDPKYLSIVKEYANDQDKFFKDFSKAFEKLLENGITFPKDAPSPFIFKTLEEQGL | soluble on expression in E. coli | soluble |
| MGSDKIHHHHHHMTKKLTNQLIDVTSGRNFRELGGYETNSGKKIKMHKLLRTGNLADLSPFDKQFLTDYGVKYDVDFRSKEEVERQPDRVPDGVEYIYDPVFSEDLTNSSKSINDLNTQASDDADFGFNHMHYAYEDMIESESAQKAYRKFFDVLLKNDVEGESVIFHCTAGKDRTGFGALLILSALGVPFNTIKKDYLLTNITTKEFVESMVEHARQNGRNENVLQSIRDIQSVRAEYIDHAVKIINDDYGSIHNYLRDMMKLSSADIMKLRNIYLED | soluble on expression in E. coli | not soluble |
| MGSDKIHHHHHHMKSNVVVKYPVNSELANYAEKFWKKELAIYNLSLILNKMTPFVKRRSESYKSSLSAVKEIFKNVDDFQNFLNSVLRRSLDEYRVFFENYERLFNSFSSKIFSMRTKSRLVVGLGDESVYETSIRLHRNYGVPYIPGSALKGVAKHYAFSILARENGDEILRIYESVKEDLKARIAKRDKIKKNDVPEDYYLTAAVIQELFEKKFDELGAIRNTRVEIGDTVISVGDIVKIFGTQKEEGSVIFFDAFPTPEQLKDKPNLELDIMNPHYQPYYQHGEPPGDWHSPNPIFFLTVPAGVEFTFAVASRDLDDLAEKAEKLLKEALKKFGVGAKTSLGYGRFDARDDR | soluble on expression in E. coli | not soluble |
| MNEYFFPKLTAVEALAPYRLRTTWSTGEVLEVDVGDILRKIPDLAPILDPEAFARVHIAEWEGSVEWFDTEFGRDNVYAWAKEQAGEVSHEMFGDWMHRNNLSLTTAAEALGISRRMVSYYRTAHKIIPRTIWLACLGWEATRPETKTLPRTLPAAYAKGVSASLS | soluble on expression in E. coli | soluble |
| MKNVGFIGWRGMVGSVLMDRMSQENDFENLNPVFFTTSQAGQKAPVFGGKDAGDLKSAFDIEELKKLDIIVTCQGGDYTNEVYPKLKATGWDGYWVDAASALRMKDDAIIVLDPVNQHVISEGLKKGIKTFVGGNCTVSLMLMAIGGLFEKDLVEWISVATYQAASGAGAKNMRELLSQMGLLEQAVSSELKDPASSILDIERKVTAKMRADNFPTDNFGAALGGSLIPWIDKLLPETGQTKEEWKGYAETNKILGLSDNPIPVDGLCVRIGALRCHSQAFTIKLKKDLPLEEIEQIIASHNEWVKVIPNDKEITLRELTPAKVTGTLSVPVGRLRKLAMGPEYLAAFTVGDQLLWGAAEPVRRILKQLVA | soluble on expression in E. coli | soluble |
| MGSDKIHHHHHHMTPRANALPTDAGELYYSYARPADGALPSLSRQKGLLGIITFQTGFVGEGDGAKPEGILQIPLSGRGDDLCELWKTTQPVLAGTFGDITYRCSRDFLFGSIALAVADLPAGNHGLIHPPLQNAAELAYQQIFSLLDRHGYPGLLRIWNFVPDINGVSHGLEHYRQFNIGRQDAFLAHNRLPSRQNIPAASALGSVDGPLVVYFLAARRNSVAVENPRQISAYHYPQEYGPSSPTFSRAGWVDLGQQKILFISGTASIIGHQTRHGGNVAAQARESMANIAAVVAETNRVAAGSPYDLNDLSYKVYLRQFTDLPIVRAELDRLVTPKAPIFYLQADICRADLLVEIEATAGVLHGGMA | soluble on expression in E. coli | not soluble |

Next sequence, soluble on expression in E. coli to be filled in.
Param item = MQENQQITKKEQYNLNKLQKRLRRNVGEAIADFNMIEEGDRIMVCLSGGKDSYTMLEILRNLQQSAPINFSLVAVNLDQKQPGFPEHVLPEYLEKLGVEYKIVEENTYGIVKEKIPEGKTTCSLCSRLRRGILYRTATELGATKIALGHHRDDILQTLFLNMFYGGKMKGMPPKLMSDDGKHIVIRPLAYCREKDIQRFADAKAFPIIPCNLCGSQPNLQRQVIADMLRDWDKRYPGRIETMFSAMQNVVPSHLCDTNLFDFKGITHGSEVVNGGDLAFDREEIPLQPACWQPEEDENQLDELRLNVVEVKLEHHHHHH ; retrieve measured soluble on expression in E. coli.
not soluble
